- Assay Remarks: Acute toxicity, oral
- Assay Context: mouse, in vivo, mice, orally
Quantity Name: LD50

# input Reported LD50 for COc1ccc([C@@H]2Sc3ccccc3N(CCN(C)C)C(=O)[C@@H]2OC(=O)c2ccc([N+](=O)[O-])cc2Cl)cc1.O=C(O)/C=C/C(=O)O : what is it?
# output > 2000 mg/kg

* * *

- System: UniProt:P0DP23
Quantity Name: IC50 (nM)
Response body: numeric value in nM, unit text excluded.

{"Molecule": "COc1ccc([C@@H]2Sc3ccccc3N(CCN(C)C)C(=O)[C@@H]2OC(=O)c2ccc([N+](=O)[O-])c(C)c2)cc1.Cl [hydrochloride]", "System": "UniProt:P0DP23", "Numeric Value": 2500}

# input Param readout= IC50; system= UniProt:P0DP23; entry= COc1ccc([C@@H]2Sc3ccccc3N(CCN(C)C)C(=O)[C@@H]2OC(=O)c2ccc(Cl)c([N+](=O)[O-])c2)cc1.O=C(O)C(=O)O [oxalate] ; returns value.
# output 1400

# input Which measured IC50 belongs to COc1ccc([C@@H]2Sc3ccccc3N(CCN(C)C)C(=O)[C@@H]2OC(=O)c2ccc([N+](=O)[O-])cc2Cl)cc1.O=C(O)/C=C/C(=O)O [fumarate] , tested on UniProt:P0DP23?
# output 2500

# input Given the entry CCN(CC)CCN1C(=O)[C@H](OC(=O)c2ccc([N+](=O)[O-])cc2Cl)[C@H](c2ccc(OC)cc2)Sc2ccccc21.Cl [hydrochloride] , what IC50 was observed with UniProt:P0DP23?
# output 2100

* * *

- System: calmodulin (Homo sapiens)
Quantity Name: IC50 (nM)
A number alone suffices; assume nM.

# input Give calmodulin (Homo sapiens) IC50 for COc1ccc([C@@H]2Sc3ccccc3N(CCN(C)C)C(=O)[C@@H]2OC(=O)c2ccc([N+](=O)[O-])cc2)cc1.O=C(O)/C=C/C(=O)O [fumarate]
# output 4500

# input Form field - read-out: IC50; system: calmodulin (Homo sapiens); submitted item: COc1ccc([C@@H]2Sc3ccccc3N(CCN(C)C)C(=O)[C@@H]2OC(=O)c2ccc([N+](=O)[O-])c(OC)c2)cc1 [methanesulfonate]
# output 2700

# input Query the reported IC50 for calmodulin (Homo sapiens); item: CCN(C)CCN1C(=O)[C@H](OC(=O)c2ccc([N+](=O)[O-])cc2Cl)[C@H](c2ccc(OC)cc2)Sc2ccccc21 [oxalate]
# output 2100
